- testedTarget: T1, human α4β7 integrin on cells (human, UniProt P13612 34-1032; P26010 20-798)
- T1 construct: whole, on cells; also called α4β7 cell (Hu); RPMI8866 cells
- procedureDetails: PBMC memory T cell adhesion
Bridge positions count the residues as written; N and C are the ends. Square brackets hold non-standard residues; d marks the D form. Phe(4-COOH) = N[C@@H](Cc1ccc(C(=O)O)cc1)C(=O)O; Phe(4-tBu) = CC(C)(C)c1ccc(C[C@H](N)C(=O)O)cc1; NMeR = CN[C@@H](CCCNC(=N)N)C(=O)O; β3hE = N[C@@H](CCC(=O)O)CC(=O)O; NMeK = CN[C@@H](CCCCN)C(=O)O; Pen = CC(C)(S)[C@H](N)C(=O)O
quantityName: IC50

1) Ac-[Pen][NMeR]SDTL[Pen]W[dE][dK]-NH2 (disulfide 1-7; not fully specified (residue 10); printed as (Ac Pen N-Me-R S D T L Pen W e k NH2)2 DIG, disulfide Pen-Pen; also: homodimer via DIG linker) [SEQ ID NO: 68]; > 100 nM

query: // returns reported IC50 for input Ac-[Pen][NMeR]SDTL[Pen][Phe(4-tBu)][β3hE][NMeK]-NH2 (disulfide 1-7; not fully specified (residue 10); printed as (Ac Pen N-Me-R S D T L Pen F(4-tBu) b-H-E N-Me-K NH2)2 DIG, disulfide Pen-Pen; also: homodimer (…)2 DIG via Lys10 NZ) [SEQ ID NO: 149]
result: ≤ 10 nM

query: # iterate: Ac-[Pen][NMeR]SDTL[Pen][Phe(4-COOH)]E[NMeK]-NH2 (disulfide 1-7; not fully specified (residue 10); printed as (Ac Pen N-Me-R S D T L Pen F(4-COOH) E N-Me-K NH2)2 DIG, disulfide Pen-Pen; also: homodimer (…)2 DIG via Lys10 NZ) [SEQ ID NO: 147]
result: ≤ 10 nM
